What follows is a collection of pIC50 values obtained with Cytochrome P450 2D6 (Homo sapiens).
Sequence (P10635 whole entry): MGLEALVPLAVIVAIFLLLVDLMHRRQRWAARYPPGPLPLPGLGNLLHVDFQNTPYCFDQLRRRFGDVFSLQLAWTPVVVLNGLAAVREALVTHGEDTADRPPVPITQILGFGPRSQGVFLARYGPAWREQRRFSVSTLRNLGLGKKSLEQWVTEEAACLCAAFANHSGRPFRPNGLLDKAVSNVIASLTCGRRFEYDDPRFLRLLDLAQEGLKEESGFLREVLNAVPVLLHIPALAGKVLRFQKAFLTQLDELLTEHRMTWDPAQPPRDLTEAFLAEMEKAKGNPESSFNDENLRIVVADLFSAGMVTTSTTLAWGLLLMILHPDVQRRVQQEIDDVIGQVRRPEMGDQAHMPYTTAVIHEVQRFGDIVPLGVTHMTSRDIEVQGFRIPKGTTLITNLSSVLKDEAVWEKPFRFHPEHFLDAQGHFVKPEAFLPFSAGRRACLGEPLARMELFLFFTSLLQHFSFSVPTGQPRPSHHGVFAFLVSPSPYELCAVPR
pIC50: −log10 of the molar value.
attribute_measured: pIC50

smiles_string: Cc1cc(N2CC[C@H](N3CCC[C@@H]3C)C2)ccc1NC(=O)c1cc(F)ccc1C
attribute_measured: pIC50
result: < 4.52
--
smiles_string: Cc1cc(N2CC[C@H](N3CCC[C@H]3C)C2)ccc1NC(=O)c1cc(F)ccc1C
attribute_measured: pIC50
result: < 4.52

====

# experiment_summary: Cmax in C57BL/6 mouse brain at 2 mg/kg, iv
# Assay type: ADME, organism-based
# Parameters: dose 2 mg/kg, route intravenous

smiles_string: Cc1cc(N2CC[C@H](N3CCC[C@@H]3C)C2)ccc1NC(=O)c1cc(F)ccc1C
Cmax: 4820 ng/mL

====

# experiment_summary: Half life in C57BL/6 mouse brain at 2 mg/kg, iv
# Type: ADME, organism-based
# Parameters: dose 2 mg/kg, route intravenous
attribute_measured: half-life (h)

smiles_string: Cc1cc(N2CC[C@H](N3CCC[C@@H]3C)C2)ccc1NC(=O)c1cc(F)ccc1C
attribute_measured: half-life
result_number: 1.6

====

# experiment_summary: AUC (0 to infinity) in C57BL/6 mouse plasma at 2 mg/kg, iv
# Type: ADME, organism-based
# Set-up: time infinity, dose 2 mg/kg, route intravenous

smiles_string: Cc1cc(N2CC[C@H](N3CCC[C@@H]3C)C2)ccc1NC(=O)c1cc(F)ccc1C
AUC(0-inf): 560 ng·h/mL

====

# experiment_summary: AUC (0 to infinity) in C57BL/6 mouse plasma at 10 mg/kg, po
# Type: ADME, organism-based
# Set-up: time infinity, dose 10 mg/kg, route oral

smiles_string: Cc1cc(N2CC[C@H](N3CCC[C@@H]3C)C2)ccc1NC(=O)c1cc(F)ccc1C
AUC(0-inf), ng·h/mL: 4000

====

# experiment_summary: AUC (0 to infinity) in C57BL/6 mouse brain at 2 mg/kg, iv
# Type: ADME, organism-based
# Parameters: time infinity, dose 2 mg/kg, route intravenous
attribute_measured: AUC(0-inf)

smiles_string: Cc1cc(N2CC[C@H](N3CCC[C@@H]3C)C2)ccc1NC(=O)c1cc(F)ccc1C
attribute_measured: AUC(0-inf)
result: 2.6 µg·h/mL

====

# experiment_summary: Cmax in C57BL/6 mouse plasma at 2 mg/kg, iv
# Assay type: ADME, organism-based
# Design: dose 2 mg/kg, route intravenous

smiles_string: Cc1cc(N2CC[C@H](N3CCC[C@@H]3C)C2)ccc1NC(=O)c1cc(F)ccc1C
unit_abbreviation: ng/mL
Cmax: 2000

====

# experiment_summary: Volume of distribution at steady state in C57BL/6 mouse at 2 mg/kg, iv
# Type: ADME, organism-based
# Set-up: dose 2 mg/kg, route intravenous
# measurement_setup: in vivo, read-out: Vdss
attribute_measured: Vd (L/kg)

smiles_string: Cc1cc(N2CC[C@H](N3CCC[C@@H]3C)C2)ccc1NC(=O)c1cc(F)ccc1C
attribute_measured: Vd
unit_abbreviation: L/kg
result_number: 5.2

====

# experiment_summary: Cmax in C57BL/6 mouse brain at 10 mg/kg, po
# Type: ADME, organism-based
# Parameters: dose 10 mg/kg, route oral
attribute_measured: Cmax (ng/mL)

smiles_string: Cc1cc(N2CC[C@H](N3CCC[C@@H]3C)C2)ccc1NC(=O)c1cc(F)ccc1C
result_number: 4290
